Recorded values, source patent US12077503B2.

pest or weed control at 500 g/ha values for the compounds below.
- Test system: giant foxtail (Setaria faberii)
- assayComment: Test A preemergence
- Assay type: in vivo
- assaySetup: Setaria faberi, pre-emergence, 240 h, 500 g ai/ha, preemergence; 0 to 100 scale where 0 is no effect and 100 is complete control; read-out: Foxtail, Giant plant response rating
Write the value in % as a bare number.

Known pest or weed control at 500 g/ha results, listed for orientation:
{"columns": ["smilesString", "systemName", "recordedNumber"],
 "data": [
  ["CN1C[C@H](c2cscn2)[C@@H](C(=O)Nc2cccc(F)c2F)C1=O", "giant foxtail (Setaria faberii)", 0],
  ["COc1cc([C@H]2CN(C)C(=O)[C@@H]2C(=O)Nc2cccc(F)c2C)ccc1F", "giant foxtail (Setaria faberii)", 90],
  ["O=C1NC[C@H](c2cccc(I)c2)[C@H]1C(=O)Nc1ccccc1F", "giant foxtail (Setaria faberii)", 90],
  ["O=C1NC[C@H](c2csc(C(F)F)c2)[C@H]1C(=O)Nc1ccccc1F", "giant foxtail (Setaria faberii)", 90],
  ["Cc1c(F)cccc1NC(=O)[C@H]1C(=O)N(C)C[C@@H]1c1ccc(C(F)(F)F)nc1", "giant foxtail (Setaria faberii)", 100],
  ["CSc1ccccc1NC(=O)[C@H]1C(=O)N(C)C[C@@H]1c1ccc(F)cc1", "giant foxtail (Setaria faberii)", 100]
]}

[in] Entry CN1C[C@H](c2cccc(C(C)(F)F)c2)[C@@H](C(=O)Nc2ccc(F)cc2F)C1=O needs its pest or weed control at 500 g/ha filled in; supply it.
[out] 90

[in] Entry Cc1c(F)cccc1NC(=O)[C@H]1C(=O)N(C)C[C@@H]1c1ccc(F)cc1 needs its pest or weed control at 500 g/ha filled in; supply it.
[out] 100

###

pest or weed control at 500 g/ha values for the compounds below.
- Test system: ryegrass, Italian (Italian ryegrass, Lolium multiflorum)
- assayComment: Test A preemergence
- Assay type: in vivo
- assaySetup: Lolium multiflorum, pre-emergence, 240 h, 500 g ai/ha, preemergence; visual injury rating about 10 d after treatment, 0 to 100 scale (0 no effect, 100 complete control); read-out: Ryegrass, Italian plant response rating
Write the value in % as a bare number.

Known pest or weed control at 500 g/ha results, listed for orientation:
{"columns": ["compound", "systemName", "measurementKind", "recordedNumber"],
 "data": [
  ["CC(C)COc1cccc([C@H]2CN(C)C(=O)[C@@H]2C(=O)Nc2cccc(F)c2F)c1", "ryegrass, Italian (Italian ryegrass, Lolium multiflorum)", "pest or weed control at 500 g/ha", 90],
  ["CC(=O)Oc1ccc(NC(=O)[C@H]2C(=O)N(C)C[C@@H]2c2cc(F)cc(F)c2)c(F)c1", "ryegrass, Italian (Italian ryegrass, Lolium multiflorum)", "pest or weed control at 500 g/ha", 0]
]}

[in] Entry Cc1ccc([C@H]2CNC(=O)[C@@H]2C(=O)Nc2ccccc2S(C)(=O)=O)cc1C needs its pest or weed control at 500 g/ha filled in; supply it.
[out] 70

[in] Entry Cc1cc([C@H]2CN(C)C(=O)[C@@H]2C(=O)Nc2ccc(F)c(F)c2F)ccc1Cl needs its pest or weed control at 500 g/ha filled in; supply it.
[out] 70

[in] Entry Cc1cc([C@H]2CNC(=O)[C@@H]2C(=O)Nc2ccc(F)cc2F)ccc1C(F)(F)F needs its pest or weed control at 500 g/ha filled in; supply it.
[out] 50

[in] Entry CN1C[C@H](c2cc(F)cc(Cl)c2)[C@@H](C(=O)Nc2ccccc2F)C1=O needs its pest or weed control at 500 g/ha filled in; supply it.
[out] 80

[in] Entry CSc1ccccc1NC(=O)C1C(=O)NCC1C=C(C)C (stereo not shown) needs its pest or weed control at 500 g/ha filled in; supply it.
[out] 0
